Hi there, I'd appreciate the recorded growth inhibition for every entry that follows.
experiment: NCI Yeast Anticancer Drug Screen. Data for the mec2-1 strain (AID 157); conditions: S. cerevisiae mec2-1 strain, at 50.0 µM (retest, dose inferred, filed as 5.0), stronger effect = higher value
This is part of a sample that, as a whole, favours compounds with a hit. Of some 79,000 tested, about 15% had one in any assay.
Answers are plain numbers, in %.

COMPOUND	READOUT UNITS	MEASURED RESULT
CCCCCCC(=O)CCCCCC/C=C\CC1OC(=O)C(N)(CO)C1O (stereo not given)	%	99
Oc1ccc(O)c2c1CC=C(Cl)C2	%	57
COC(=O)C1CCC(=O)N1C(c1ccc(OC)cc1)c1cc(OC)c(OC)c(OC)c1 (stereo not given)	%	15

Answer for every listed entry: what is its growth inhibition? The entries follow.
1. Nc1ccc2c(c1)CN1C(=O)c3ccccc3C1=N2
2. CN(C)C1=NC2=S(SC(Nc3ccccc3)=N2)S1 (stereo not given)
3. Cc1ccc(S(=O)(=O)Oc2c([N+](=O)[O-])cc(C)cc2[N+](=O)[O-])cc1
4. CCOC(=O)C(=O)CC(=O)C(Br)C(Br)c1ccc(Cl)cc1 (stereo not given)
5. Oc1c(Br)cc(Cl)cc1Br

1: 22; 2: 33; 3: 29; 4: 99; 5: 99

Answer for every listed entry: what is its growth inhibition? The entries follow.
1. O=C(OCc1ccccc1)C(O)c1ccccc1 (stereo not given)
2. CN(CCC1CCCCC1)CCC1CCCCC1
3. Cc1cc(N=Nc2ccncc2C)ccc1N
4. O=C(C1=Cc2ccccc2OC1)N1CCN(c2cccc(Cl)c2)CC1

1. 6
2. 72
3. 87
4. 98

Answer for every listed entry: what is its growth inhibition? The entries follow.
1. COc1ccccc1C(=O)c1c(C(=O)O)ccc2ccccc12
2. COC(=O)C1=C(CS(=O)c2ccccc2[N+](=O)[O-])ON(C)C1c1ccccc1 (stereo not given)
3. O=C(CCl)Oc1ccc(Sc2ccc(OC(=O)CCl)cc2)cc1
4. CCn1c2ccccc2c2ccc(N=Nc3ccc(N(C)C)cc3)cc21
5. CCOCCNCc1ccc(Cl)c(Cl)c1
6. Oc1c(N(Cc2ccccc2)Cc2ccccc2)ccc2cccnc12

-28
66
98
94
-51
96

Answer for every listed entry: what is its growth inhibition? The entries follow.
1. CC(C)Cc1cc(O)cc2ccccc12
2. CC[N+](CC)(CC)Cc1ccc(C[N+](CC)(CC)CC)cc1
3. CC(=O)CC1CCC(=O)/C=C/C(=O)OC(CC(C)=O)CCC(=O)/C=C/C(=O)O1 (stereo not given)
4. CN(C)c1ccc(C(=O)C2CCCC(C)(C)C2)cc1 (stereo not given)
5. O=C/C=C/c1cc([N+](=O)[O-])ccc1Cl

1: 99; 2: -2; 3: 47; 4: 78; 5: 79

Answer for every listed entry: what is its growth inhibition? The entries follow.
1. O=C1CCS(=O)(=O)c2ccccc21
2. Clc1ccc(Cl)c(SCCCN2CCNCC2)c1
3. Clc1ccc([I+]c2cccs2)cc1

[99, 32, 99]

Answer for every listed entry: what is its growth inhibition? The entries follow.
1. O=S(=O)(Nc1ccccc1)c1ccccc1C=C(c1ccccc1)c1ccccc1
2. O=[N+]([O-])c1ccc(NS(=O)(=O)c2ccccc2)c(NS(=O)(=O)c2ccccc2)c1
3. CC(=O)OC1COC(N2C(=O)C(=O)c3cc(Br)ccc32)C(OC(C)=O)C1OC(C)=O (stereo not given)
4. Oc1ccc(/C=N/NC(=S)NC2CC3CC2C2C=CCC32)c(O)c1 (stereo not given)

1. 90
2. 76
3. 7
4. 97

Sourced from PubChem BioAssay (NCI)
